Target: Glucose transporter (Leishmania mexicana) (UniProt O61059)
Assay: ST_JUDE_LEISH: Cytotoxicity at 2uM final concentration against transgenic Leishmania Mexicana promastigotes LmGT2 that are glucose transport deficient and complemented with the L. Mexicana glucose transporter 2. Activity is measured by DNA content using SYBR green in vitro
Format: functional
Assay Metric: inhibition (%)
# unit: % | format: bare number

The examples below pair each entry with its known result.
CN(C(=O)/C=C/c1cc(C(F)(F)F)ccc1F)C1CCN(CCCCCNC(=O)/C=C/c2ccc(Cl)c(Cl)c2)CC1 :: 2.56
O=C(c1ccc(Cl)cc1Cl)N1CCCC(C(F)(F)F)C1 (stereo not drawn) :: 10.3
COc1ccc(C(=O)C2CCN(CCCCNC(=O)c3ccc(NC(=O)c4cc(Cl)cc(Cl)c4)cc3)CC2)cc1 :: 2.05
CC(C)(C)Nc1cc(C(=O)N[C@@H](Cc2ccccc2)[C@H](O)CNC2CCOCC2)cc(N2CCCCS2(=O)=O)c1 :: -0.61
O=c1cc(NCCCNCc2cccc(I)c2)[nH]c2ccccc12 :: -0.58

get_value(item= Nc1ccc2[nH]cc(C3CCN(CC4CCC(NC(=O)/C=C/c5ccccc5Cl)CC4)CC3)c2n1 (stereo not drawn) , readout=inhibition) returns 2.48

get_value(item= CC(C)N(Cc1ccc(-c2ccc(C(F)(F)F)cc2)cc1)C(=O)Cn1c(CCc2cccc(F)c2F)cc(=O)c2ccc(CCCN3CCCCC3)cc21 , readout=inhibition) returns 3.61

get_value(item= CN1CCN(CCCN(Cc2csc(-c3ccc(CNCc4ccccc4)cc3)n2)S(=O)(=O)c2cccc3cccnc23)CC1 , readout=inhibition) returns 4.06
